From: ChEMBL document CHEMBL1131368

For each entry below, report its pIC50 value.
# system: Endothelin-converting enzyme 1 (Homo sapiens, UniProt P42892)
# Sequence (P42892 whole entry): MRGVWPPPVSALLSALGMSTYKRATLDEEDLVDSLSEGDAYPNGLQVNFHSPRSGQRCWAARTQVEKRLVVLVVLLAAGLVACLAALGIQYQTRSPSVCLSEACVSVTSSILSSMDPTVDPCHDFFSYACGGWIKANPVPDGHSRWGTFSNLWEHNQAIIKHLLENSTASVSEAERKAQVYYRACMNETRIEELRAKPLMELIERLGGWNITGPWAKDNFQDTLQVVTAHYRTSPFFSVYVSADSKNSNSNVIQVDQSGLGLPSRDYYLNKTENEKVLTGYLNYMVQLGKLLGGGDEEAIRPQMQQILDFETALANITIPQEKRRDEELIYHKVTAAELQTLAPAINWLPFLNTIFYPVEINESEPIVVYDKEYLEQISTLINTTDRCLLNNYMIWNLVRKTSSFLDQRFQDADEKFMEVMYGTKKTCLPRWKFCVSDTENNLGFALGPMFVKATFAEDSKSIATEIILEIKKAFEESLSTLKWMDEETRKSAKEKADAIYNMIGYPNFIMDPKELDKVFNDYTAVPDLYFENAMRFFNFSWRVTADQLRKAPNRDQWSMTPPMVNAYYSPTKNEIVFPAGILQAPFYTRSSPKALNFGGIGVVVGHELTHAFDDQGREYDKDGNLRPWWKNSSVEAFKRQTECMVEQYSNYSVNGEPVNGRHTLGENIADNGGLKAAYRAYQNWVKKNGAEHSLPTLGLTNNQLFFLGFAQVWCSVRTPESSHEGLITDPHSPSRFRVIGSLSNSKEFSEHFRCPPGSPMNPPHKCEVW
# measurementProtocol: Inhibition of human recombinant Endothelin-converting enzyme 1.
Numbers only, as −log10 of the molar value.

> print(dat)
                      smilesnotation  measuredproperty  observedmeasurement
1  COc1cc(C(=O)O)nc(-c2csc(C)n2)c1OC             pIC50                 5.85

Hi there! I need pIC50 for each item below, if you can.
1. COc1ccc(C(=O)O)nc1-c1csc(Cc2ccccc2)n1
2. COc1ccc(C(=O)O)nc1-c1csc(-c2ccc(-c3ccccc3)cc2)n1
3. COc1ccc(C(=O)O)nc1-c1csc(C)n1

Solution:
1. 6.07
2. 5.00
3. 5.85
